# PROTOCOL NOTES: folding enthalpy; higher = less favourable; fluorescence melt of hairpins on a sequencing array, two-state fit
# CONDITION: sodium 0.088 M
# binarize folding enthalpy: threshold -20 kcal/mol inclusive, high side true (1), low side false (0)

Solved entries:
RESIDUES: GCACTAGGAAACTGGTGC ((((.((....)).))))
CLASS LABEL: false (0)
//
RESIDUES: GGTATTCGAAAGAAAACC (((.(((....))).)))
CLASS LABEL: false (0)
//
RESIDUES: GATAGCGAAAGCTCGATC ((((((....)))..)))
CLASS LABEL: true (1)
//
RESIDUES: GATCATAATCATGATC ((((((....))))))
CLASS LABEL: false (0)
//
RESIDUES: GCTTAGGGAAACTTAAGC (((((.(....).)))))
CLASS LABEL: false (0)

Lookup: Given the entry GAAAGCGAAAGCTTATTC ((((((....)))..))) , answer whether its folding enthalpy meets or surpasses -20 kcal/mol.
Found: true (1)

Lookup: Determine whether measured folding enthalpy meets or exceeds -20 kcal/mol for GGCAGCCGAAAGGCCGCC (((.(((....))).)))
Found: false (0)

Lookup: Could you verify whether the entry GGAAAACGAAAGTTTCC (((.(((....)))))) shows folding enthalpy of no less than -20 kcal/mol?
Found: false (0)

Lookup: Record GCGCGCGAAAGCGAACGC ((((((....)))..))) ; criterion: folding enthalpy no lower than -20 kcal/mol. Met?
Found: false (0)

Lookup: Assess whether reported folding enthalpy for GCTCGTGGAAACATGGGC ((.(.((....)).).)) sits at -20 kcal/mol or higher.
Found: true (1)

Lookup: Please tell me: is the sequence GATCCGAGCCCGGATC ((((((....)))))) at or over -20 kcal/mol in terms of folding enthalpy?
Found: false (0)

Lookup: API: above_or_equal(metric=folding enthalpy, cutoff=-20 kcal/mol) for item GGCGAGACGAAAGTCGCC (((..(((....))))))
Found: true (1)

Lookup: Please check the record GATCGTTAACACGATC ((((((....)))))) and state if its folding enthalpy is at or above -20 kcal/mol.
Found: false (0)

Lookup: Decide: is the reported value of folding enthalpy for GCGTAGCGAAAGCAGCGC (((..((....))..))) equal to or greater than -20 kcal/mol?
Found: true (1)

Lookup: Answer whether folding enthalpy of GCTTAGCGAAAGCCACGC ((.(.((....)).).)) is greater than or equal to -20 kcal/mol.
Found: true (1)

Lookup: Exam item: decide whether the reported folding enthalpy for GCTAACGAAAGTTTAGC ((((((....))).))) is at least -20 kcal/mol.
Found: false (0)

Lookup: Check if folding enthalpy >= -20 kcal/mol (inclusive). Item: CGAGTGCGGAAACGCTCG (((..(((....))))))
Found: false (0)
